Attribution: paper PMC6695355

Test system: human red blood cells (RBCs)
PROTOCOL_SUMMARY: Hemolysis assay
Type: cell-based
PARTICULARS: red cells of human, 1 h, 8
Where a SMILES comes first, the peptide text is derived from it.
EXPERIMENTAL_ENDPOINT: Percentage of hemolysis at 8 μg/mL (%)

| COMPOUND | ASSAYED_TARGET | READOUT_NUMBER |
| --- | --- | --- |
| CC[C@H](C)[C@H](NC(=O)[C@H](C)NC(=O)[C@H](CCCCN)NC(=O)[C@@H](NC(=O)[C@@H](NC(=O)[C@H](CC(=O)O)NC(=O)[C@H](Cc1ccccc1)NC(=O)[C@H](CC(C)C)NC(=O)CN)[C@@H](C)CC)[C@@H](C)CC)C(=O)N[C@@H](C)C(=O)N[C@@H](CCC(=O)O)C(=O)N[C@@H](CO)C(=O)N[C@@H](Cc1ccccc1)C(N)=O [Peptide K8A] (H-GLFDIIKAIAESF-NH2) | human red blood cells (RBCs) | 0.0 |
| CC[C@H](C)[C@H](NC(=O)[C@H](CCCCN)NC(=O)[C@H](CCCCN)NC(=O)[C@@H](NC(=O)[C@@H](NC(=O)[C@H](CC(=O)O)NC(=O)[C@H](Cc1ccccc1)NC(=O)[C@H](CC(C)C)NC(=O)[C@H](C)N)[C@@H](C)CC)[C@@H](C)CC)C(=O)N[C@@H](C)C(=O)N[C@@H](CCC(=O)O)C(=O)N[C@@H](CO)C(=O)N[C@@H](Cc1ccccc1)C(N)=O [Peptide G1A] (H-ALFDIIKKIAESF-NH2) | human red blood cells (RBCs) | 0.0 |
| CC[C@H](C)[C@H](NC(=O)[C@H](CCCCN)NC(=O)[C@H](CCCCN)NC(=O)[C@@H](NC(=O)[C@@H](NC(=O)[C@H](CC(=O)O)NC(=O)[C@H](Cc1ccccc1)NC(=O)[C@H](CC(C)C)NC(=O)CN)[C@@H](C)CC)[C@@H](C)CC)C(=O)N[C@@H](C)C(=O)N[C@@H](CCC(=O)O)C(=O)N[C@@H](CO)C(=O)N[C@@H](Cc1ccccc1)C(N)=O [aurein 1.2] (H-GLFDIIKKIAESF-NH2) | human red blood cells (RBCs) | 0.0 |
